Reported germ count E. coli values follow for various compounds
Tested on: Escherichia coli ATCC 8739
Assay: Test for adequate preservation (European Pharmacopea), 1,2-diols and 1,2-diol mixtures in O/W emulsion
Assay type: cell-based
Details: 0′-count (initial germ count); 3% diol(s) in O/W emulsion

{"compound": "CCCCCCC(O)CO (stereo not shown) [OC3, 1,2-octanediol]", "germ count E. coli": "300,000 CFU/ml"}
{"compound": "CCCC(O)CO (stereo not shown) [PE3, 1,2-pentanediol]", "germ count E. coli": "300,000 CFU/ml"}
{"compound": "CCCCCCCCC(O)CO (stereo not shown) [DE 3, 1,2-decanediol]", "germ count E. coli": "350,00 CFU/ml"}
{"compound": "CCCCC(O)CO (stereo not shown) [HE3, 1,2-hexanediol]", "germ count E. coli": "300,000 CFU/ml"}

---

Test system: Staphylococcus aureus ATCC 6538
Experiment: Test for adequate preservation (European Pharmacopea), 1,2-diols and 1,2-diol mixtures in O/W emulsion
Format: cell-based
Conditions: 0′-count (initial germ count); 3% diol(s) in O/W emulsion
value_kind: germ count Staph. aureus

{"compound": "CCCCC(O)CO (stereo not shown) [HE3, 1,2-hexanediol]", "experimental_system": "Staphylococcus aureus ATCC 6538", "value_kind": "germ count Staph. aureus", "val": "240,000 CFU/ml"}
{"compound": "CCCCCCC(O)CO (stereo not shown) [OC3, 1,2-octanediol]", "experimental_system": "Staphylococcus aureus ATCC 6538", "value_kind": "germ count Staph. aureus", "val": "240,000 CFU/ml"}
{"compound": "CCCC(O)CO (stereo not shown) [PE3, 1,2-pentanediol]", "experimental_system": "Staphylococcus aureus ATCC 6538", "value_kind": "germ count Staph. aureus", "val": "240,000 CFU/ml"}
{"compound": "CCCCCCCCC(O)CO (stereo not shown) [DE 3, 1,2-decanediol]", "experimental_system": "Staphylococcus aureus ATCC 6538", "value_kind": "germ count Staph. aureus", "val": "350,000 CFU/ml"}

---

Tested on: Aspergillus niger ATCC 16404
Assay: Test for adequate preservation (European Pharmacopea), 1,2-diols and 1,2-diol mixtures in O/W emulsion
Assay type: cell-based
Conditions: 7 d; 3% diol(s) in O/W emulsion

{"molecule": "CCCCCCCCC(O)CO (stereo not shown)", "germ count A. niger": "100,000 CFU/ml"}
{"molecule": "CCCC(O)CO (stereo not shown)", "germ count A. niger": "140,000 CFU/ml"}
{"molecule": "CCCCCCC(O)CO (stereo not shown)", "germ count A. niger": "1,100 CFU/ml"}
{"molecule": "CCCCC(O)CO (stereo not shown)", "germ count A. niger": "80,000 CFU/ml"}

---

Tested on: Candida albicans ATCC 10231
Assay: Test for adequate preservation (European Pharmacopea), 1,2-diols and 1,2-diol mixtures in O/W emulsion
Assay type: cell-based
Details: 48 h; 3% diol(s) in O/W emulsion
value_kind: germ count C. albicans

{"molecule": "CCCCC(O)CO (stereo not shown)", "experimental_system": "Candida albicans ATCC 10231", "value_kind": "germ count C. albicans", "val": "5,600 CFU/ml"}
{"molecule": "CCCCCCCCC(O)CO (stereo not shown)", "experimental_system": "Candida albicans ATCC 10231", "value_kind": "germ count C. albicans", "val": "0 CFU/ml"}
{"molecule": "CCCC(O)CO (stereo not shown)", "experimental_system": "Candida albicans ATCC 10231", "value_kind": "germ count C. albicans", "val": "73,000 CFU/ml"}
{"molecule": "CCCCCCC(O)CO (stereo not shown)", "experimental_system": "Candida albicans ATCC 10231", "value_kind": "germ count C. albicans", "val": "<100 CFU/ml"}

---

Tested on: Candida albicans ATCC 10231
Assay: Test for adequate preservation (European Pharmacopea), 1,2-diols and 1,2-diol mixtures in O/W emulsion
Format: cell-based
Settings: 4 d; 3% diol(s) in O/W emulsion
value_kind: germ count C. albicans (CFU/ml)

{"compound": "CCCCCCC(O)CO (stereo not shown)", "unit_descriptor": "CFU/ml", "val": 0}
{"compound": "CCCCCCCCC(O)CO (stereo not shown)", "unit_descriptor": "CFU/ml", "val": 0}
{"compound": "CCCCC(O)CO (stereo not shown)", "unit_descriptor": "CFU/ml", "val": 0}

---

Reported germ count A. niger values follow for various molecules
System: Aspergillus niger ATCC 16404
Experiment: Test for adequate preservation (European Pharmacopea), 1,2-diols and 1,2-diol mixtures in O/W emulsion
Format: cell-based
Settings: 24 h; 3% diol(s) in O/W emulsion
Procedure: A test for adequate preservation was carried out in accordance with the European Pharmacopea. […] With this equation the so-called synergy index (SI), which is a measure for a synergistic activity, but also for a possible antagonistic activity, of a mixture having an antimicrobial action, is determined. A synergistic effect is evident if the SI value determined is less than 1. […]

{"molecule": "CCCCC(O)CO (stereo not shown)", "germ count A. niger": "120,000 CFU/ml"}
{"molecule": "CCCC(O)CO (stereo not shown)", "germ count A. niger": "180,000 CFU/ml"}
{"molecule": "CCCCCCCCC(O)CO (stereo not shown)", "germ count A. niger": "73,000 CFU/ml"}
{"molecule": "CCCCCCC(O)CO (stereo not shown)", "germ count A. niger": "55,000 CFU/ml"}

---

Reported germ count A. niger values follow for various molecules
Tested on: Aspergillus niger ATCC 16404
Experiment: Test for adequate preservation (European Pharmacopea), 1,2-diols and 1,2-diol mixtures in O/W emulsion
Type: cell-based
Details: 48 h; 3% diol(s) in O/W emulsion
Method: A test for adequate preservation was carried out in accordance with the European Pharmacopea. […] With this equation the so-called synergy index (SI), which is a measure for a synergistic activity, but also for a possible antagonistic activity, of a mixture having an antimicrobial action, is determined. A synergistic effect is evident if the SI value determined is less than 1. […]
value_kind: germ count A. niger

{"molecule": "CCCC(O)CO (stereo not shown) [PE3, 1,2-pentanediol]", "val": "180,000 CFU/ml"}
{"molecule": "CCCCCCC(O)CO (stereo not shown) [OC3, 1,2-octanediol]", "val": "6,000 CFU/ml"}
{"molecule": "CCCCCCCCC(O)CO (stereo not shown) [DE 3, 1,2-decanediol]", "val": "160,000 CFU/ml"}
{"molecule": "CCCCC(O)CO (stereo not shown) [HE3, 1,2-hexanediol]", "val": "120,000 CFU/ml"}

---

Test system: Aspergillus niger ATCC 16404
Assay: Test for adequate preservation (European Pharmacopea), 1,2-diols and 1,2-diol mixtures in O/W emulsion
Type: cell-based
Details: 28 d; 3% diol(s) in O/W emulsion
Reported germ count A. niger values follow for various compounds

{"compound": "CCCCC(O)CO (stereo not shown)", "germ count A. niger (CFU/ml)": 800}
{"compound": "CCCCCCC(O)CO (stereo not shown)", "germ count A. niger (CFU/ml)": 100}

---

Test system: Pseudomonas aeruginosa ATCC 9027
Assay: Test for adequate preservation (European Pharmacopea), 1,2-diols and 1,2-diol mixtures in O/W emulsion
Type: cell-based
Settings: 7 d; 3% diol(s) in O/W emulsion
value_kind: germ count Ps. aeruginosa (CFU/ml)

{"compound": "CCCCC(O)CO (stereo not shown)", "value_kind": "germ count Ps. aeruginosa", "unit_descriptor": "CFU/ml", "val": 0}
{"compound": "CCCC(O)CO (stereo not shown)", "value_kind": "germ count Ps. aeruginosa", "unit_descriptor": "CFU/ml", "val": 0}
{"compound": "CCCCCCC(O)CO (stereo not shown)", "value_kind": "germ count Ps. aeruginosa", "unit_descriptor": "CFU/ml", "val": 0}

---

Reported germ count C. albicans values follow for various compounds
Test system: Candida albicans ATCC 10231
Assay: Test for adequate preservation (European Pharmacopea), 1,2-diols and 1,2-diol mixtures in O/W emulsion
Type: cell-based
Conditions: 0′-count (initial germ count); 3% diol(s) in O/W emulsion

{"compound": "CCCCCCC(O)CO (stereo not shown)", "germ count C. albicans": "250,000 CFU/ml"}
{"compound": "CCCCC(O)CO (stereo not shown)", "germ count C. albicans": "250,000 CFU/ml"}
{"compound": "CCCC(O)CO (stereo not shown)", "germ count C. albicans": "250,000 CFU/ml"}
{"compound": "CCCCCCCCC(O)CO (stereo not shown)", "germ count C. albicans": "320,000 CFU/ml"}

---

Test system: Pseudomonas aeruginosa ATCC 9027
Assay: Test for adequate preservation (European Pharmacopea), 1,2-diols and 1,2-diol mixtures in O/W emulsion
Format: cell-based
Conditions: 28 d; 3% diol(s) in O/W emulsion
value_kind: germ count Ps. aeruginosa (CFU/ml)

{"compound": "CCCC(O)CO (stereo not shown)", "val": 0}
{"compound": "CCCCCCC(O)CO (stereo not shown)", "val": 0}
{"compound": "CCCCC(O)CO (stereo not shown)", "val": 0}

Entry source: patent US7582681B2
